Tested on: MS2 coat protein
Protocol description: apparent KD of MS2 coat protein; designed switch direction (-1 OFF switch, 1 ON switch): -1; higher = weaker reporter binding
Measurement parameters: Eterna round: R95; input ligand: microRNA oligo, concentration not stated
Readout name: apparent KD of MS2 coat protein

Reference set (2 entries):
// apparent KD of MS2 coat protein value for ACUCGUAACUAGGAUAUCCGAAAUAAACGAGGAGGAGAAGGAGUUACAUGAGGAUCACCCAUGUGAUAUAAAGA [Edtisoed] (puzzle: Exclusion 6) : 15.3 nM

// apparent KD of MS2 coat protein value for GAUUAUGCGAGCUUUAGGGACAUGAGGAUCACCCAUGUUCGUCUUAUUGAUCUAGGUACACUAACAUACCUAAAUCU [JMF 17] (puzzle: Sensor v3, turn-off variant 1) : 38.1 nM

# input for lookup
// apparent KD of MS2 coat protein value for UUUUAGAGAGGAUAUAUUUAGUGAAACAUGAGGAUCACCCAUGUAAUUAAAUGGAUGUAAAUAGAAGGCUCAUUUA [Mat - Exclusion 5 - JL mod - D6] (puzzle: Exclusion 5) : 23.7 nM

---

Tested on: K4 kissing-loop RNA reporter;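 also: bound reporter read as fluorescence of individual clusters on recovered sequencing chips by microscopy, with normalized cluster intensities fitted with a binding model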
Protocol description: apparent KD of K4 kissing-loop reporter; higher = weaker reporter binding
Measurement parameters: Eterna round: R107; input ligand: arginine 13.2 mM
Readout name: apparent KD of K4 kissing-loop reporter (nM)
Please state the figure in nM; there is no need to write the unit.

Short answer on K4 kissing-loop RNA reporter for AGAACUGUCUGAGAUACCAGCCAAGGAGUGAUGUUCCGGCUCGACGAAACGUCGAGCCAUGGCCCUUGGCAGCUCAGACAGUUCA [Omei KL Theo B SS A v2] , apparent KD of K4 kissing-loop reporter: 116

Short answer on K4 kissing-loop RNA reporter for UGACAUUGCUCAGAUACCAGACCUGAGGAUCACCCGGGUGCCAAAACGUACUAAAUAAAGGUCCCUUGGCAGCUGAGCAAUGUCU [TheoBX 13] , apparent KD of K4 kissing-loop reporter: 43.7

Short answer on K4 kissing-loop RNA reporter for CGGAGUGAUGUUCCUUUUAUUAAUUAUUUACGAGGACCGGUACGGCCGCCACUCGAUUUAGCUUUUAUUUAAUGCUUGGAUGUUU [JR_SSTryptoA_Sub004] , apparent KD of K4 kissing-loop reporter: 212

More entries:
Short answer on K4 kissing-loop RNA reporter for GGAUCCACCAGUGAUGUUGGAGUAAUCUCCAAGGAUAUGACGAAAGUCAGAAGGUGGUAAAUAGACGUCAAAGACGUCGGAUCCA [FmnA 22 #SwitchBubble #K4Early] , apparent KD of K4 kissing-loop reporter: 78.3

Short answer on K4 kissing-loop RNA reporter for AUAAUUAUAUAGAAAUAUAUAAUUAUAUAACGAGGACCGGUACGGCCGCCACUCGUGCCGGGCAUAAAAUGAGUGAUGUUCAUGU [KL-XTryp-A7 #analogue] , apparent KD of K4 kissing-loop reporter: 228

Short answer on K4 kissing-loop RNA reporter for UGAACCCGGUCGGCCGCCACUCUGAGAACCAUCGCCCUACGUGCAGUGAUGUUGUACCUAAUGAGGAGGACCGGGACUGGGCGGC [theeternabot_sameState_KL_Trp_B_36] , apparent KD of K4 kissing-loop reporter: 277

---

Measured apparent KD of MS2 coat protein values are reported for all entries that follow.
System: MS2 coat protein
Protocol description: apparent KD of MS2 coat protein; designed switch direction (-1 OFF switch, 1 ON switch): -1; higher = weaker reporter binding
Measurement parameters: Eterna round: R95; input ligand: FMN 200 uM
Please state the figure in nM; there is no need to write the unit.

Reference set (4 entries):
// apparent KD of MS2 coat protein value for AAGAAACAUGAGGAUCACCCAUGUGAGGAUAUGAGAAAGAAAAGAAAAGAAAGAAGAAUCAGAAGGCACAAAGG [salish99-ex1_r3_032] (puzzle: Exclusion 1) : 117

// apparent KD of MS2 coat protein value for AAACCUGCCCAUGACCGCAAGCUUUUUGCUUGUCUUACCACAUGAGGAUCACCCAUGUGACAUGGGCUCCUUAUAAA [Usteorrila] (puzzle: Sensor v3, turn-off variant 2) : 12.7

// apparent KD of MS2 coat protein value for GGUUGGCGAGGAUAUACAUGAGGAUCACCCAUGUGAGAGAAUAAAGUGAGGAAGAAAAGUAGAAGGCGCUGACA [Mat - Exclusion 3 - Mod of Salish D8] (puzzle: Exclusion 3) : 154

// apparent KD of MS2 coat protein value for GAUAGAGAGCAGGAUAUCUUGGAUAAGUAUAGUAGAGAAGGGCUCACAUGAGGAUCACCCAUGUGGUCCUAGAU [JL Dibiri mod 11] (puzzle: Exclusion 6) : 43.8

More entries:
// apparent KD of MS2 coat protein value for UUUUAGAGAGGAUAUAUAUAGUGAAACAUGAGGAUCACCCAUGUAAUUAUAUGGAUGUAAAUAGAAGGCUCAUUUA [JL-ex5-3.02] (puzzle: Exclusion 5) : 35.7

---

System: MS2 coat protein
Protocol description: apparent KD of MS2 coat protein; designed switch direction (-1 OFF switch, 1 ON switch): -1; higher = weaker reporter binding
Measurement parameters: input ligand: none
Readout name: apparent KD of MS2 coat protein (µM)
Please state the figure in µM; there is no need to write the unit.

// apparent KD of MS2 coat protein value for AUCAGCUCGUGAGGAUAUAUAUACAUGAGGAUCACCCAUGUAAGAUCAGGCUUCGGCCAAUGUAUAUAGAAGGCACGAGCUGAU [ENG2/11-A3] (Eterna round: R96, puzzle: Exclusion NG 2) : 0.808

// apparent KD of MS2 coat protein value for UCUUGUUGUCCUUGAUAAUACAUGAGGAUCACCCAUGUUAUUUUGAUUAUGAUGUGUAAGUUUGUUGCUCGUUUUAU [JR_STOV1_Sub069] (Eterna round: R97, puzzle: Sensor, turn-off variant 1) : 0.0309

// apparent KD of MS2 coat protein value for CUUUUGUGAGGAUAUUAGUAGUUUAUAAUUGGUGUUAUUGCUGAGAAGGCACAUGAGGAUCACCCAUGUACAAC [JR_Ex4_Sub033] (Eterna round: R97, puzzle: Exclusion 4) : 0.037

// apparent KD of MS2 coat protein value for GCAGAUGAAGUGAGGAUAUGCUCUACCUCGGUAGAGCAGAAGGCACAUGAGGAUCACCCAUGUGAUUCAUCUGC [Omei Ex4B B6] (Eterna round: R97, puzzle: Brourd's mod of Exclusion 4) : 0.017

// apparent KD of MS2 coat protein value for UUAAUGUCAGGAUAUGCUUAAUAUAUUUUAUUAUAAUAUAUACAUGAGGAUCACCCAUGUAGAAGGGACAUUAU [LRO-Excl2-04-Fireball XL5] (Eterna round: R97, puzzle: Exclusion 2) : 0.0391

More entries:
// apparent KD of MS2 coat protein value for UUAUUAUAUGUAGGAUAUGCAUAUUGUUGUUAUGCAGAAGGACAUGAGGAUCACCCAUGUAUAUUGUUGUUGUAUAUUAUAUAU [Title] (Eterna round: R96, puzzle: Exclusion NG 1) : 0.0233

// apparent KD of MS2 coat protein value for UCGUUCCGUGUAGGAUAUUGGCCUUCUCUGGGCCGAGAAGGACAUGAGGAUCACCCAUGUAUGUUAUUAUCACGCGUGGCGCAU [Design 84] (Eterna round: R96, puzzle: Exclusion NG 1) : 0.0251

// apparent KD of MS2 coat protein value for UAGUUAUUCACAGGAUAUCGCCUCUUAUUACAUGAGGAUCACCCAUGUUUAUUUUGUUACAUGUUCGAGAAGGGUGUAGUCUUU [JR_ExcNG2_Sub046] (Eterna round: R96, puzzle: Exclusion NG 2) : 0.535

// apparent KD of MS2 coat protein value for ACAUGUUGCGCAGGAUAUGAGACACAUGAGGAUCACCCAUGUGGUUACAUGUCUUACCAAGCGUCUCAGAAGGGUGUGAACAUG [Ex NG2 #33] (Eterna round: R96, puzzle: Exclusion NG 2) : 0.0247

// apparent KD of MS2 coat protein value for GGACCGUGAGGAUAUAGAGGUCGCGUCAUAGGGCGUGGUUACUAGAAGGCACAUGAGGAUCACCCAUGUUCAUC [Eternabot (L1) Solution 7] (Eterna round: R97, puzzle: Exclusion 4) : 0.0197

// apparent KD of MS2 coat protein value for GAUUCGGGAGGAUAUACAUGAGGAUCACCCAUGUAUAUAUAAUAUAAUAAAUUAAAAUGUAGAAGGUUUGGGUC [-13.5, -9.6 kcal, 38% A] (Eterna round: R97, puzzle: Exclusion 3) : 0.0232

// apparent KD of MS2 coat protein value for AGCUGAGCAGGAUAUACAUGAGGAUCACCCAUGUAUUCUCGAAGGCGCCGCAUAGCAUGUAGAAGGGUUUAGAU [Eternabot (L1) Solution 20] (Eterna round: R97, puzzle: Exclusion 3) : 0.0232

// apparent KD of MS2 coat protein value for AGAUCACAUGAGGAUCACCCAUGUGAGGAUAUGGACUGAAGAGCUUCGGCUCUUCAGUCCAGAAGGCACAAUGA [EX1 #43] (Eterna round: R97, puzzle: Exclusion 1) : 0.0289

// apparent KD of MS2 coat protein value for UUGUAGUGAGGAUAUAUAUAGAGGUUUUAUUAAUUUUUAAAACUUGAGGAUCACCCAAGUAGAAGGCGCAAAGU [JR_Ex2_Sub071] (Eterna round: R97, puzzle: Exclusion 2) : 0.0399

// apparent KD of MS2 coat protein value for GUCAUCAAACAUGGGAUCAACAUGAGGAUCACCCAUGUUGACAAGUUUUUUGCUCGUCUUAUAAUACGUUUGAUGAC [Mod-Jx] (Eterna round: R97, puzzle: Sensor, turn-off variant 1) : 0.0155

// apparent KD of MS2 coat protein value for CAGGGCAUGCGAGGAUAUAGCAACAUGAGGAUCACCCAUGUAUAAGGGUGUCCUAGGCAUGCGCGCUAGAAGGCGCUGGUUCUC [Onreusve] (Eterna round: R96, puzzle: Exclusion NG 2) : 0.0755

// apparent KD of MS2 coat protein value for AAUAACAAGCUGAUCCUAAACAUGAGGAUCACCCAUGUGCUCGUCUUGUAAAGUACUAUCACGAAAGUGAUAGUACA [MOD7 of my MOD of Eli's v1-59 (mutation at 11 A to U)] (Eterna round: R97, puzzle: Sensor, turn-off variant 1) : 0.142

// apparent KD of MS2 coat protein value for AAACCUUGUGUCAGGAUAUGCAGAGGGAACGCCAGGCAGAAGGGACAUGAGGAUCACCCAUGUACAUUUUAAAC [BmEX4 B.19] (Eterna round: R97, puzzle: Brourd's mod of Exclusion 4) : 0.0392

Ref: the supplement of paper PMC9170038
